# System: Mycobacterium tuberculosis
# METHOD_SUMMARY: Cornell M. t heat shock assay; also: in the data most compounds retested in dose-response had high values
# Format: functional, organism-based
# Set-up: dose or concentration left out as unconfirmed
Screen size: about 69,000 compounds; about 950 (1.4%) showed an effect of 50% or more. Many of the other results were omitted from the sample, so strong results are more common in it than they were.
Attribute: Percent Effect
PROPERTY_MEASURED: Percent Effect (%)

COMPOUND: O=C(c1cocn1)N1C[C@@H]2COC[C@]2(COc2cccnc2)C1
UNIT_OF_MEASURE: %
RECORDED_RESULT: 75.2
--
COMPOUND: O=C(O)C(F)(F)F.O=C(O)C(F)(F)F.c1cncc(-c2nnn3c2COCC(CNCC2CCOCC2)C3)c1 (stereo not given)
UNIT_OF_MEASURE: %
RECORDED_RESULT: -15.79
--
COMPOUND: O=C(C1=CCCC1)N1C[C@@H]2COC[C@]2(COc2cccnc2)C1
UNIT_OF_MEASURE: %
RECORDED_RESULT: 1.513
--
COMPOUND: CCc1ncc(C(=O)N2CCCN(C3CCCC3)CC2)cn1
UNIT_OF_MEASURE: %
RECORDED_RESULT: -5.155
--
COMPOUND: Cc1cnn(CC2CCCN2Cc2nc3ccccc3n2C)c1 (stereo not given)
UNIT_OF_MEASURE: %
RECORDED_RESULT: 101.1
--
COMPOUND: Cc1cccc(CN2CCC3(CC2)CN(c2cccnc2)C(=O)CO3)n1.O=C(O)C(F)(F)F.O=C(O)C(F)(F)F
UNIT_OF_MEASURE: %
RECORDED_RESULT: -14.12
--
COMPOUND: Cn1cc(CN2CC[C@H]3O[C@H](C(=O)Nc4cnccn4)CC[C@H]32)cn1.O=C(O)C(F)(F)F
UNIT_OF_MEASURE: %
RECORDED_RESULT: -14.77
--
COMPOUND: c1ccc(-c2cnc(CN3CCCC3Cn3cccn3)o2)cc1 (stereo not given)
UNIT_OF_MEASURE: %
RECORDED_RESULT: 7.104
--
COMPOUND: O=C(c1ncccn1)N1C[C@@H]2COC[C@]2(COc2cccnc2)C1
UNIT_OF_MEASURE: %
RECORDED_RESULT: 26.01
--
COMPOUND: Cl.NC(=O)c1ccc(C2CCCNC2)nc1 (stereo not given)
UNIT_OF_MEASURE: %
RECORDED_RESULT: 6.817
